Entries and their Euclidean distance
# Test system: DU145
# Assay Protocol: Euclidean distance of Cell Painting phenotypic profile (signed KS, 77 features) to DMSO centroid (dimensionless distance); 5 or 10 uM (library dependent); higher = stronger phenotypic change vs DMSO (phenoactivity)
# Conditions Used: 48 h
Counter-ions that a name gives are not always drawn.

# annotated cases, reported Euclidean distance shown
1) CCCCc1oc2ccccc2c1C(=O)c1cc(I)c(OCCN(CC)CC)c(I)c1 [Amiodarone HCl] | 2.02
2) CC(C)N1CCN(c2ccc(Nc3ncc4cc5n(c4n3)C3(CCCCC3)CNC5=O)nc2)CC1 | 2.41
3) CO/N=C(\C(=O)N[C@@H]1C(=O)N2C(C(=O)O)=C(COC(C)=O)CS[C@H]12)c1csc(N)n1 [Cefotaxime sodium] | 0.877
4) CC(=O)Nc1ccc(OC(=O)c2ccccc2OC(C)=O)cc1 [Benorylate] | 1.31

Note to self: Euclidean distance recorded for CCCc1nc2c(C)cc(-c3nc4ccccc4n3C)cc2n1Cc1ccc(-c2ccccc2C(=O)O)cc1 [Telmisartan] was 1.03

Note to self: Euclidean distance recorded for CCOC(=O)c1ccc(OC(=O)CCCCCNC(=N)N)cc1 [Gabexate Mesylate] was 1.01

Note to self: Euclidean distance recorded for C[C@@H]1C[C@H]2[C@@H]3C[C@H](F)C4=CC(=O)C=C[C@]4(C)[C@@]3(F)[C@@H](O)C[C@]2(C)[C@@]1(O)C(=O)CO [Flumethasone] was 2.17

Note to self: Euclidean distance recorded for Cn1cncc1[C@@](N)(c1ccc(Cl)cc1)c1ccc2c(c1)c(-c1cccc(Cl)c1)cc(=O)n2C [Tipifarnib] was 2.5

====

# Tested on: FB
# Assay Protocol: Euclidean distance of Cell Painting phenotypic profile (signed KS, 77 features) to DMSO centroid (dimensionless distance); 5 or 10 uM (library dependent); higher = stronger phenotypic change vs DMSO (phenoactivity)
# Conditions Used: 48 h
Assign True to entries whose Euclidean distance meets or exceeds 1; assign False to the rest.

Query: Given CC1=CC(=O)c2ccccc2C1=O [Menadione] , state whether its Euclidean distance is at least 1.
Response: True

Query: Given O=C(O)CCCCC(CCSCc1ccccc1)SCc1ccccc1 (centres undefined) , state whether its Euclidean distance is at least 1.
Response: False

Query: Given Nc1cccc2c1C(=O)N(C1CCC(=O)NC1=O)C2=O (centres undefined) [Pomalidomide] , state whether its Euclidean distance is at least 1.
Response: True

====

# Test system: FB
# Assay Protocol: Euclidean distance of Cell Painting phenotypic profile (signed KS, 77 features) to DMSO centroid (dimensionless distance); 5 or 10 uM (library dependent); higher = stronger phenotypic change vs DMSO (phenoactivity)
# Conditions Used: 48 h
Counter-ions that a name gives are not always drawn.
Assign 1 (yes) to entries whose Euclidean distance meets or exceeds 1; assign 0 (no) to the rest.

Below, 6 compounds whose answers are already recorded.
1. CO/N=C(\C(=O)N[C@@H]1C(=O)N2C(C(=O)O)=C(COC(C)=O)CS[C@H]12)c1csc(N)n1 | 0 (no)
2. CCCCOc1ccc(OCCCN2CCOCC2)cc1 [Pramoxine HCl] | 0 (no)
3. C=CC(=O)Nc1ccc2ncnc(Nc3cccc(Br)c3)c2c1 | 1 (yes)
4. CNCCc1ccccn1 [Betahistine 2HCl] | 0 (no)
5. CC(C)n1cnc2c(NCCc3ccc(O)cc3)nc(-c3csc4ccccc34)nc21 [StemRegenin 1 (SR1)] | 1 (yes)
6. [O-][n+]1cccc(-c2nc3c(Cl)cccc3cc2[C@@H](Nc2ncnc3cccnc23)C(F)(F)F)c1 | 1 (yes)

Query: Given Nc1ccn(C[C@@H](CO)OCP(=O)(O)O)c(=O)n1 , state whether its Euclidean distance is at least 1.
Response: 0 (no)

Query: Given COc1cc2c(Oc3ccc4[nH]c(C)cc4c3F)ncnc2cc1OCCCN1CCCC1 [Cediranib (AZD2171)] , state whether its Euclidean distance is at least 1.
Response: 1 (yes)

Query: Given O=C(O)c1cn(C2CC2)c2cc(N3CCNCC3)c(F)cc2c1=O [Ciprofloxacin hydrochloride hydrate] , state whether its Euclidean distance is at least 1.
Response: 1 (yes)

====

# System: 786-O
# Assay Protocol: Euclidean distance of Cell Painting phenotypic profile (signed KS, 77 features) to DMSO centroid (dimensionless distance); 5 or 10 uM (library dependent); higher = stronger phenotypic change vs DMSO (phenoactivity)
# Conditions Used: 48 h
Structures can show the parent of a compound that is named as a salt.
Reported Property: Euclidean distance
Number, no unit, nothing else.

# annotated cases, reported Euclidean distance shown
1. COCCc1ccc(OCC(O)CNC(C)C)cc1 (stereo not drawn) [Metroprolol succinate] | 0.936
2. CN(C)N(C)C(=O)[C@@]1(Cc2ccccc2)CCCN(C(=O)[C@@H](Cc2c[nH]c3ccccc23)NC(=O)C(C)(C)N)C1 | 1.33
3. CCCc1ncc(C[n+]2ccccc2C)c(N)n1 [Amprolium HCl] | 1.47
4. O=C(C1CCCCC1)N1CC(=O)N2CCc3ccccc3C2C1 (stereo not drawn) | 0.868
5. CC(C)CC(N)=O [Isovaleramide] | 1.41
6. CN(Cc1cnc2nc(N)nc(N)c2n1)c1ccc(C(=O)N[C@@H](CCC(=O)O)C(=O)O)cc1 [Methotrexate disodium] | 2.05
7. CNCc1ccc(-c2[nH]c3cc(F)cc4c3c2CCNC4=O)cc1 | 1.61
8. CCCCC(=O)O[C@H]1CC[C@H]2[C@@H]3CCc4cc(O)ccc4[C@H]3CC[C@]12C [Estradiol valerate] | 1.37
9. CCCCN1CCCC[C@H]1C(=O)Nc1c(C)cccc1C [Levobupivacaine HCl] | 1.01
10. O=C1C[C@@H](c2ccc(O)cc2)Oc2cc(O)cc(O)c21 | 0.882

Note to self: Euclidean distance recorded for NC[C@H]1O[C@H](O[C@H]2[C@H](O)[C@@H](O[C@H]3O[C@H](CO)[C@@H](O)[C@H](N)[C@H]3O)[C@H](N)C[C@@H]2N)[C@H](N)C[C@@H]1O was 0.897

Note to self: Euclidean distance recorded for CO[C@H]1C[C@@H]2CC[C@@H](C)[C@@](O)(O2)C(=O)C(=O)N2CCCC[C@H]2C(=O)O[C@H]([C@H](C)C[C@@H]2CC[C@@H](OP(C)(C)=O)[C@H](OC)C2)CC(=O)[C@H](C)/C=C(\C)[C@@H](O)[C@@H](OC)C(=O)[C@H](C)C[C@H](C)/C=C/C=C/C=C/1C [Deforolimus] was 2.73

Note to self: Euclidean distance recorded for O=C(O)c1ccc2c(c1)nc(Nc1cccc(Cl)c1)c1ccncc12 [CX-4945 (Silmitasertib)] was 1.47

Note to self: Euclidean distance recorded for COc1cc2ncnc(Nc3ccc(F)c(Cl)c3)c2cc1OCCCN1CCOCC1 [Gefitinib hydrochloride] was 1.01

Note to self: Euclidean distance recorded for COCCCOc1ccnc(C[S+]([O-])c2nc3ccccc3[nH]2)c1C (stereo not drawn) [Rabeprazole] was 1.5

Note to self: Euclidean distance recorded for CC(C)n1cnc2c(NCCc3ccc(O)cc3)nc(-c3csc4ccccc34)nc21 [StemRegenin 1 (SR1)] was 0.931

Note to self: Euclidean distance recorded for COc1ccc2c(c1)C(=O)N(CCc1ccc(S(=O)(=O)NC(=O)NC3CCCCC3)cc1)C(=O)C2(C)C was 1.02

Note to self: Euclidean distance recorded for COc1cc2c(cc1OC)C(=O)C(CC1CCN(Cc3ccccc3)CC1)C2 (stereo not drawn) was 0.813

Note to self: Euclidean distance recorded for CCC[C@@H]1C[C@@H](C(=O)N[C@@H]([C@H]2O[C@H](SC)[C@H](OP(=O)(O)O)[C@@H](O)[C@H]2O)[C@H](C)Cl)N(C)C1 [Clindamycin Phosphate] was 1.64

Note to self: Euclidean distance recorded for C[C@]12CC[C@@H]3c4ccc(O)cc4CC[C@H]3[C@@H]1CC[C@@H]2O was 1.17

====

Entries and their Euclidean distance
# Tested on: 786-O
# Assay Protocol: Euclidean distance of Cell Painting phenotypic profile (signed KS, 77 features) to DMSO centroid (dimensionless distance); 5 or 10 uM (library dependent); higher = stronger phenotypic change vs DMSO (phenoactivity)
# Conditions Used: 48 h
Counter-ions that a name gives are not always drawn.
Number, no unit, nothing else.

# annotated cases, reported Euclidean distance shown
1. CCC1(O)C(=O)OCc2c1cc1n(c2=O)Cc2c-1nc1ccccc1c2CCNC(C)C (stereo not given) [Belotecan (CKD-602) hydrochloride] | 4.55
2. Cc1cc(Nc2cc(N)ncn2)c(=O)n2c1C(=O)NC21CCCCC1 | 0.779
3. O=S(=O)(O)CCS | 0.758
4. COC(=O)Nc1nc2cc(C(=O)c3cccs3)ccc2[nH]1 | 2.96
5. CCCc1nc2c(C)cc(-c3nc4ccccc4n3C)cc2n1Cc1ccc(-c2ccccc2C(=O)O)cc1 | 1.83
6. Cc1ccc(Sc2cncc3sc(C(N)=O)cc23)cc1 | 1.1
7. O=C(O)C(Cc1c[nH]c2ccccc12)N1C(=O)c2ccccc2C1=O (stereo not given) | 0.991
8. C[C@H](NC(=O)C(=O)Nc1ccccc1C(C)(C)C)C(=O)N[C@@H](CC(=O)O)C(=O)COc1c(F)c(F)cc(F)c1F | 1.44
9. CN(C)Cc1cccc(N=C(c2ccccc2)c2c(O)[nH]c3cc(C(=O)N(C)C)ccc23)c1 | 0.777
10. CN(C)C1CCN(C(=O)c2ccc(NC(=O)Nc3ccc(-c4nc(N5CCOCC5)nc(N5CCOCC5)n4)cc3)cc2)CC1 | 3.29

Tested on 786-O, the item Cc1cnc(NC(=O)Nc2cc(Br)c(C)cc2OC[C@@H]2CNCCO2)cn1 showed Euclidean distance equal to 2.52

Tested on 786-O, the item O=C(O)c1ccccc1C(=O)Nc1ccc(S(=O)(=O)Nc2nccs2)cc1 showed Euclidean distance equal to 1.08

Tested on 786-O, the item CC1(C)[C@H](C(=O)O)N2C(=O)C[C@H]2S1(=O)=O [Sulbactam sodium] showed Euclidean distance equal to 0.743

Tested on 786-O, the item CS(=O)(=O)CCC#N showed Euclidean distance equal to 0.937

Tested on 786-O, the item CCOC(=O)C1=C(N)Oc2ccc(Br)cc2C1C(C#N)C(=O)OCC (stereo not given) showed Euclidean distance equal to 0.871

Tested on 786-O, the item CC(C(=O)O)c1cccc(Oc2ccccc2)c1 (stereo not given) [Fenoprofen calcium hydrate] showed Euclidean distance equal to 1.27

Tested on 786-O, the item C[C@H]1C[C@@H]2[C@H]([C@@H](O)C[C@@]3(C)[C@H]2CC[C@]3(O)C(=O)CO)[C@@]2(C)C=CC(=O)C=C12 showed Euclidean distance equal to 1.37
